Each recorded value in this set is attributed to patent US20090137572A1.

For each record, write down the corresponding IC50.
# ASSAYED_TARGET: CDK4-cyclin D1 (Homo sapiens, UniProt P11802)
# Sequence (P11802 whole entry): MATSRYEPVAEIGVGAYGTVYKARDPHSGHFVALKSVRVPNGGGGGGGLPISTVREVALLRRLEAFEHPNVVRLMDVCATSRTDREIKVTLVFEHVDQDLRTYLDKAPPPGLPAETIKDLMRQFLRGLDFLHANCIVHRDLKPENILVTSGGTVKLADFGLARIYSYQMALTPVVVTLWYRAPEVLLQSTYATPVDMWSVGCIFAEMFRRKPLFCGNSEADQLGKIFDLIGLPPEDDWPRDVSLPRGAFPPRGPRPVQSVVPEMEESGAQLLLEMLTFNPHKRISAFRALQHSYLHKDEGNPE
# Sequence (P24385 whole entry partner): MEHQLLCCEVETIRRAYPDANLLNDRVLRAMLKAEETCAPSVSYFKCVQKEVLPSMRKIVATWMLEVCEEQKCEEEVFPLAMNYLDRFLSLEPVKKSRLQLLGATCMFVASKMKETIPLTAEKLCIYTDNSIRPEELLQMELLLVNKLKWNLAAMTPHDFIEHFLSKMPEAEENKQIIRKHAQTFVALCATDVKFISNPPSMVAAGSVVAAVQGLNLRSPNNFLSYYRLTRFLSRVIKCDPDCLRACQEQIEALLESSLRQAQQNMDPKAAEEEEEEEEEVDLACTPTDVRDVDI
# ASSAY_PROCEDURE: Kinase assay (radioactive phosphate incorporation), CDK4-cyclin D1
# Format: biochemical
# CONDITION: read-out: Kinase Inhibition pIC50 CDK4-cyclin D1 (converted)
# Method: Kinase assays. The compounds of the invention above were investigated for their ability to inhibit the enzymatic activity of various protein kinases (Table 2). This was achieved by measurement of incorporation of radioactive phosphate from ATP into appropriate polypeptide substrates. […] After washing 3 times with 75 mM aq orthophosphoric acid, plates were dried, scintillant added and incorporated radioactivity measured in a scintillation counter (TopCount, Packard Instruments, Pangbourne, Berks, UK). […]
Provide the reading as a plain figure in nM.

Q: Recorded IC50 for "CNc1nc(C)c(-c2ccnc(Nc3cccc(CC(=O)OCCOC)c3)n2)s1" , please?
Result: 2000

Q: Cool, now "CCNc1nc(C)c(-c2ccnc(Nc3cccc(S(=O)(=O)NC(C)C)c3)n2)s1"
Result: 158

Q: Proceed to "CCNc1nc(C)c(-c2ccnc(Nc3cccc(S(N)(=O)=O)c3)n2)s1"
Result: 251

Q: // same read-out, input: "CCNc1nc(C)c(-c2ccnc(Nc3ccc(N4CCN(C(C)=O)CC4)cc3)n2)s1"
Result: 251

Q: Next entry: "Cc1nc(C)c(-c2ccnc(Nc3cccc(CNC(=O)c4ccccc4)c3)n2)s1"
Result: 251

Q: # repeat for "CC(=O)NCc1cccc(Nc2nccc(-c3sc(-c4cccnc4)nc3C)n2)c1"
Result: 3980

Q: Check "CCNS(=O)(=O)c1cccc(Nc2nccc(-c3sc(N)nc3C)n2)c1" too.
Result: 794

Q: // repeat for "CCNc1nc(C)c(-c2ccnc(Nc3ccc(S(N)(=O)=O)cc3)n2)s1" and report
Result: 20

Q: Item: "CNc1nc(C)c(-c2ccnc(Nc3cc(CO)cc(CO)c3)n2)s1"
Result: 631

Q: Then "CCNc1nc(C)c(-c2ccnc(Nc3cccc(S(=O)(=O)NCCOC)c3)n2)s1" ?
Result: 158

Q: Repeat with "CC(=O)NS(=O)(=O)c1cccc(Nc2nccc(-c3sc(N)nc3C)n2)c1"
Result: 398

Q: And then "Cc1nc(C)c(-c2ccnc(Nc3cccc(N4CCNCC4)c3)n2)s1" , what is it?
Result: 2510

Q: Then what about the molecule "Cc1nc(N)sc1-c1ccnc(Nc2cccc(CNS(=O)(=O)C(F)(F)F)c2)n1" ?
Result: 631

Q: Continue with "CCNc1nc(C)c(-c2ccnc(Nc3cccc(S(C)(=O)=O)c3)n2)s1"
Result: 251

Q: Proceed to "CCNc1nc(C)c(-c2ccnc(Nc3cccc(S(=O)(=O)NCC)c3)n2)s1"
Result: 398

Q: Same question, "CNc1nc(C)c(-c2ccnc(Nc3ccc(S(C)(=O)=O)cc3)n2)s1" this time
Result: 2510

Q: Then this molecule: "CC(=O)N1CCN(c2ccc(Nc3nccc(-c4sc(N)nc4C)n3)cc2)CC1"
Result: 10000

Q: Repeat with "Cc1nc(C)c(-c2ccnc(Nc3cccc(S(=O)(=O)NCCO)c3)n2)s1"
Result: 501

###

What melting point was measured for each of the following?

Q: # query: melting point of entry "Cc1nc(Nc2ccccc2)sc1-c1ccnc(Nc2ccc(N3CCOCC3)cc2)n1"
Result: 290 to 291 °C

Q: Similarly, "Cc1cc(Nc2nccc(-c3sc(N)nc3C)n2)ccc1N1CCOCC1" ?
Result: 256 to 257 °C

Q: Same again, this time with "CCc1cc(-c2nc(C)c(-c3ccnc(Nc4ccc(CNC(C)=O)cc4)n3)s2)ccn1"
Result: 224 to 225 °C

Q: Repeat for the following compound: "CCNc1nc(C)c(-c2ccnc(Nc3ccc(N4CCCCC4)c(C)c3)n2)s1"
Result: 213 to 214 °C

Q: What do you get for "CCNc1nc(C)c(-c2ccnc(Nc3cc(OC)cc(OC)c3)n2)s1" ?
Result: 235 to 237 °C

###

# ASSAYED_TARGET: CDK9/cyclin T1 (Homo sapiens)
# Sequence (P50750 whole entry): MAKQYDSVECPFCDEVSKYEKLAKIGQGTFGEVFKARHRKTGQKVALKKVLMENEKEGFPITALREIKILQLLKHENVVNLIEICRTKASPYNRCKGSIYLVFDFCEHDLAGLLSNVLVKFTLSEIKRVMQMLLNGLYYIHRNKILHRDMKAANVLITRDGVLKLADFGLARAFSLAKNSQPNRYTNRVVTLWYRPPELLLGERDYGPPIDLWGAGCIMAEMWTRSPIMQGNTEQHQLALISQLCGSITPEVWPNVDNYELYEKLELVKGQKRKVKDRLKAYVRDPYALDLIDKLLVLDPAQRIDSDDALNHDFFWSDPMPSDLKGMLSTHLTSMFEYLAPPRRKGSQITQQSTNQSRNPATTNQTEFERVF
# Sequence (O60563 whole entry partner): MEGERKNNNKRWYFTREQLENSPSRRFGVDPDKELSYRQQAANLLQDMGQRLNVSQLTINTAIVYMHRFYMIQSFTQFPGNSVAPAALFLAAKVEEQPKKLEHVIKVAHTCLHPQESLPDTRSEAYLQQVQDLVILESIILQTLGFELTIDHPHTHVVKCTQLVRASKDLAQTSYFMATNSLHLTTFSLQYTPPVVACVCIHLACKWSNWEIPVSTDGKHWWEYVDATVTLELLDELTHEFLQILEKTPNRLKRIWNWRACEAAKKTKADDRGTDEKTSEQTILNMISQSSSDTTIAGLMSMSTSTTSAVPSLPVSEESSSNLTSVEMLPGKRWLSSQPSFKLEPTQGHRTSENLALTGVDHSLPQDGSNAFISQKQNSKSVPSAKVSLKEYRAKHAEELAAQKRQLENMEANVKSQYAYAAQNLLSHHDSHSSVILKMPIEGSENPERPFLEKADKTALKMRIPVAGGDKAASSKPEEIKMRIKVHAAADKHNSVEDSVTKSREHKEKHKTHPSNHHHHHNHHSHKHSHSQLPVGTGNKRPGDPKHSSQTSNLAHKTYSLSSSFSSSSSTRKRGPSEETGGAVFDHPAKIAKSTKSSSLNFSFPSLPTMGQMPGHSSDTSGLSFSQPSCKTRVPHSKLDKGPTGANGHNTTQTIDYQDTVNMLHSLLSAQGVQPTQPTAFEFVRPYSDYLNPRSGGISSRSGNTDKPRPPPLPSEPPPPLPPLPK
# ASSAY_PROCEDURE: CDK 9 assay (CTD peptide substrate)
# Assay type: biochemical
# CONDITION: read-out: Kinase Inhibition pIC50 CDK9-cyclin T1 (converted)
MEASUREMENT_LABEL: IC50 (nM)
Just the number in nM, nothing appended.

Q: Which value of IC50 has been reported for "CCNc1nc(C)c(-c2ccnc(Nc3cccc(S(=O)(=O)NCCOC)c3)n2)s1" in the records?
Result: 100

Q: And for "CCOC(=O)N1CCN(c2ccc(Nc3nccc(-c4sc(C)nc4C)n3)cc2)CC1" ?
Result: 2000

Q: Item: "CC(=O)NCc1ccc(Nc2nccc(-c3sc(C)nc3C)n2)cc1"
Result: 794

Q: Query "CCNc1nc(C)c(-c2ccnc(Nc3ccc(C)c(S(=O)(=O)N4CCOCC4)c3)n2)s1" next
Result: 39.8

Q: // repeat for "CCNc1nc(C)c(-c2ccnc(Nc3ccc(S(=O)(=O)NCCOC)cc3)n2)s1" and report
Result: 200

Q: # repeat for "CCNc1nc(C)c(-c2ccnc(Nc3ccc(N4CCOCC4)c(C(N)=O)c3)n2)s1"
Result: 1260

Q: Another compound to check: "CCNc1nc(C)c(-c2ccnc(Nc3ccc(N4CCOCC4)c(C)c3)n2)s1"
Result: 3160

Q: Also need "COc1cc(Nc2nccc(-c3sc(C)nc3C)n2)cc(OC)c1OC" , thanks.
Result: 2000

###

# ASSAYED_TARGET: Aurora A kinase (Homo sapiens, UniProt O14965)
# Construct: purchased
# Sequence (O14965 whole entry): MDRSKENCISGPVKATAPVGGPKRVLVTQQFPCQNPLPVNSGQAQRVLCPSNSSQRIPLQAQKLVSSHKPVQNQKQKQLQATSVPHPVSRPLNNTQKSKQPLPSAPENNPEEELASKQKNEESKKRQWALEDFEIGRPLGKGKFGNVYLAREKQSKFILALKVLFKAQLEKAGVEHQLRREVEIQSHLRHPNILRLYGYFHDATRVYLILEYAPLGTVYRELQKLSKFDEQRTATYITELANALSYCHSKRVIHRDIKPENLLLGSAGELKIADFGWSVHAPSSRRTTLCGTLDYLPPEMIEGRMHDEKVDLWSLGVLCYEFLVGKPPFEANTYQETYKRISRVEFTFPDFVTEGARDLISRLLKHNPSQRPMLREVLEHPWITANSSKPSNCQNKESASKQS
# ASSAY_PROCEDURE: Aurora-A (human) kinase assay (Kemptide substrate)
# Format: biochemical
# CONDITION: pIC50 is -log(IC50, M); 15 μM ATP; read-out: Kinase Inhibition pIC50 Aurora A kinase (converted)
# Protocol: Aurora-A (human) kinase assay. This was achieved by measurement of incorporation of radioactive phosphate from ATP into Kemptide substrate (LRRASLG), upon phosphorylation by commercially obtained aurora-A kinase. […] After washing 5 times with 75 mM aq orthophosphoric acid and once in methanol, plates were dried, scintillant added and incorporated radioactivity measured in a scintillation counter (TopCount, Packard Instruments, Pangbourne, Berks, UK). […]
MEASUREMENT_LABEL: IC50 (nM)
All answers are understood in nM, so give the number only.

Q: Hello, I am looking for reported IC50 with Aurora A kinase (Homo sapiens, UniProt O14965) for Cc1nc(C)c(-c2ccnc(Nc3ccc(N4CCCCC4)cc3)n2)s1 [Compound 193] . Could you help?
Result: 200

Q: Same for Cc1nc(N)sc1-c1ccnc(Nc2ccc3c(c2)OCO3)n1 [Compound 179]
Result: 79.4

Q: Also, Cc1nc(C)c(-c2ccnc(Nc3cccc(S(=O)(=O)NCCO)c3)n2)s1 [Compound 78] please.
Result: 631

Q: Try this compound next: Cc1nc(N)sc1-c1ccnc(Nc2cccc(CNS(C)(=O)=O)c2)n1 [Compound 6]
Result: 126

Q: Follow-up item: Cc1cc(Nc2nccc(-c3sc(N)nc3C)n2)ccc1N1CCCCC1 [Compound 206]
Result: 158

Q: How about this compound: Cc1nc(C)c(-c2ccnc(Nc3cccc(S(C)(=O)=O)c3)n2)s1 [Compound 4]
Result: 251

Q: What do you get for CNc1nc(C)c(-c2ccnc(Nc3ccc(C)c(S(=O)(=O)N4CCOCC4)c3)n2)s1 [Compound 37] ?
Result: 1000

Q: Would you mind doing CCNc1nc(C)c(-c2ccnc(Nc3ccc(N4CCSCC4)cc3)n2)s1 [Compound 203] as well?
Result: 126

Q: What about CNc1nc(C)c(-c2ccnc(Nc3ccc(S(=O)(=O)NCCOC)cc3)n2)s1 [Compound 40] ?
Result: 5.01

Q: Same read-out for CNc1nc(C)c(-c2ccnc(Nc3cc(OC)cc(OC)c3)n2)s1 [Compound 170] ?
Result: 63.1

Q: For CCNc1nc(C)c(-c2ccnc(Nc3ccc(N4CCOCC4)c(C)c3)n2)s1 [Compound 219] then?
Result: 63.1

Q: Please do the same for CCNc1nc(C)c(-c2ccnc(Nc3ccc(S(C)(=O)=O)cc3)n2)s1 [Compound 17] as well.
Result: 39.8

Q: And for CCNc1nc(C)c(-c2ccnc(Nc3cc(OC)c(OC)c(OC)c3)n2)s1 [Compound 24] ?
Result: 2.51

Q: Next up: CNc1nc(C)c(-c2ccnc(N)n2)s1 [Compound 85]
Result: 398

Q: Repeat for the following compound: CCNc1nc(C)c(-c2ccnc(Nc3ccc(N4CCCCC4)c(C)c3)n2)s1 [Compound 207]
Result: 501

Q: Same again, this time with CNc1nc(C)c(-c2ccnc(Nc3ccc(N4CCOCC4)cc3C)n2)s1 [Compound 145]
Result: 3980

Q: Can you check CCNc1nc(C)c(-c2ccnc(Nc3ccc(N4CCOCC4)c(OC)c3)n2)s1 [Compound 157] next?
Result: 25.1

Q: And Cc1cc(Nc2nccc(-c3sc(CO)nc3C)n2)ccc1N1CCCCC1 [Compound 209] ?
Result: 251
